Catalogue of abundance fitness values
B1: Peroxisome proliferator-activated receptor delta, residues 71 to 145; numbered along this chain, Q03181 (parent)
chain: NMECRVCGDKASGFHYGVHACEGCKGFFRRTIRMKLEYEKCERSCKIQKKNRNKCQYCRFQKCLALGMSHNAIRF

- Variants of: B1
- ASSAY_DETAILS: abundance fitness (aPCA) (normalised: wild type 0, dead -1); higher = more abundant; growth selection in yeast, the domain comes from the species named
- ASSAY_CONDITIONS: Homo sapiens
ENDPOINT: abundance fitness

[[record]]
mutation_id = "I73T"
observed_value = 0.184

[[record]]
mutation_id = "C45W"
observed_value = -0.864

[[record]]
mutation_id = "F27R"
observed_value = -0.684

[[record]]
mutation_id = "C41S"
observed_value = -0.945

[[record]]
mutation_id = "I47E"
observed_value = -0.235

[[record]]
mutation_id = "G67L"
observed_value = -0.808

[[record]]
mutation_id = "M2S"
observed_value = -0.305

[[record]]
mutation_id = "L66W"
observed_value = -0.629

[[record]]
mutation_id = "K54P"
observed_value = -0.037

[[record]]
mutation_id = "G13S"
observed_value = -0.212

